Readings of pEC50 for the listed compounds
- system-name: hFXR (Homo sapiens, UniProt Q96RI1)
- Sequence (Q96RI1 whole entry): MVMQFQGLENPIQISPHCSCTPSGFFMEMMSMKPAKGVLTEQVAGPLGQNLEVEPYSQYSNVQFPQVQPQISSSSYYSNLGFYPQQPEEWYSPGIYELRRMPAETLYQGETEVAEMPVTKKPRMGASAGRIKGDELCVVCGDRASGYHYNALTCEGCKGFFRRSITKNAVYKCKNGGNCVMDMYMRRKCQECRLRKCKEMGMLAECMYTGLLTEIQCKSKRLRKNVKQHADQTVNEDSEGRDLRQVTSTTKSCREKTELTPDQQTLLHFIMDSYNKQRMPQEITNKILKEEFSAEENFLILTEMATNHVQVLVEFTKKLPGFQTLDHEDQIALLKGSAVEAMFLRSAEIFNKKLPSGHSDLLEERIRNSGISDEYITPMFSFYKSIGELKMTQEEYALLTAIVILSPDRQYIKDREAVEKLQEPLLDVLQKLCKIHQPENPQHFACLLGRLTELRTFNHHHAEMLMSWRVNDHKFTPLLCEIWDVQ
- Sequence (P19793 whole entry partner): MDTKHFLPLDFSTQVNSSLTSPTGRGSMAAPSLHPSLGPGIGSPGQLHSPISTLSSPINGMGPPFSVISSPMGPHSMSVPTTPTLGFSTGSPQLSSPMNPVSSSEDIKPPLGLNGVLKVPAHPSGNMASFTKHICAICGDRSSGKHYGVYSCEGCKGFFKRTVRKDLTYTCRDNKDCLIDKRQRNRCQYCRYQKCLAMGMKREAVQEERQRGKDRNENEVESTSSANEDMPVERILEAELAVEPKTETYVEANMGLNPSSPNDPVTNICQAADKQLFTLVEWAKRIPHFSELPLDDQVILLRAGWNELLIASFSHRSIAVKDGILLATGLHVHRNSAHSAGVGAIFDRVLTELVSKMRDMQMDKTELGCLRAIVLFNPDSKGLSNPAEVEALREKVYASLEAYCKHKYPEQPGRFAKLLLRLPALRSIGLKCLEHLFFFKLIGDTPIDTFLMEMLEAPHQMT
- test-name: In Vitro FXR Assay (TK): TK-ECRE-luc reporter in transfected CV-1 cells
- experimental-conditions: 18 hrs incubation, luminescence
pEC50: −log10 of the molar value.

Query :: Which pEC50 is reported for this compound? COc1ccc([C@H]2CC[C@H](CN(c3cc(-c4coc(C(C)C)n4)ccn3)C(=O)[C@H]3CC[C@H](OC(=O)NCC(C)(C)CO)CC3)CC2)nc1C
Result :: 6.00 to 7.30

Query :: Which pEC50 is reported for this compound? CC(C)c1ccc(C23CCC(CN(c4nccc(-c5cnn(C(C)C)c5)n4)C(=O)[C@H]4CC[C@H](OC(=O)N5CC(O)C5)CC4)(CC2)CC3)cc1
Result :: ≥ 7.30

====

- system-name: hFXR (Homo sapiens, UniProt Q96RI1)
- test-name: In Vitro FXR Assay (TK): TK-ECRE-luc reporter in transfected CV-1 cells
- experimental-conditions: 18 hrs incubation, luminescence
pEC50: −log10 of the molar value.
measured-parameter: pEC50

# example entries with known answers
COc1ccc(C23CCC(CN(c4cc(-c5cnn(C(C)C)c5)ccn4)C(=O)[C@H]4CC[C@H](OC(=O)N5CC(O)C5)CC4)(CC2)CC3)cc1Cl = ≥ 7.30
COc1ccc([C@H]2CC[C@H](CN(c3cc(-c4cnn(C(C)C)c4)ccn3)C(=O)[C@H]3CC[C@H](OC(=O)NCC(C)(C)O)CC3)CC2)cc1C = ≥ 7.30

# evaluate next
Query :: Which pEC50 is reported for this compound? COc1ccc(C23CCC(CN(c4cc(-c5cnn(C6(C)CCC6)c5)ccn4)C(=O)[C@H]4CC[C@H](OC(=O)NCCCO)CC4)(CC2)CC3)cc1C
Result :: ≥ 7.30

====

Readings of EC50 for the listed compounds
- system-name: hFXR (Homo sapiens)
- test-name: In Vitro FXR Assay (TK): TK-ECRE-luc reporter in transfected CV-1 cells
- experimental-conditions: 18 hrs incubation, luminescence

COc1ccc([C@H]2CC[C@H](CN(c3cccc(-c4cnn(C(C)C)c4)c3)C(=O)[C@H]3CC[C@H](NC(=O)COCCCO)CC3)CC2)cc1C = ≤ 50 nM
CS(=O)(=O)c1ccc([C@H]2CC[C@H](CN(c3cccc(-c4cnc(C5CC5)s4)c3)C(=O)[C@H]3CC[C@H](OC(=O)N4CC(O)C4)CC3)CC2)cc1 = 50 to 1000 nM
COc1ccc(C23CCC(CN(c4cc(-c5cnn(C(C)C)c5)c(F)cn4)C(=O)[C@H]4CC[C@H](OC(=O)N5CC(O)C5)CC4)(CC2)CC3)cc1C = ≤ 50 nM
COc1ccc([C@H]2CC[C@H](CN(c3cc(-c4coc(C(C)C)n4)ccn3)C(=O)[C@H]3CC[C@H](OC(=O)NC(C)C)CC3)CC2)cc1C = ≤ 50 nM

# evaluate next
Query :: Which EC50 is reported for this compound? COc1ccc([C@H]2CC[C@H](CN(c3cccc(-c4cnn(C(C)C)c4)c3)C(=O)[C@H]3CC[C@H](NC(=O)COCCO)CC3)CC2)cc1C
Result :: 50 to 1000 nM

Taken from patent US20220056019A1.
